Here, each record is paired with measured koff data.
Biological target: T1, Histidine-tagged human CD3e protein (human, UniProt P07766 23-126)
T1 construct: also called hCD3e-His; not shown: His tag
T1 sequence (P07766 23-126 limits assumed): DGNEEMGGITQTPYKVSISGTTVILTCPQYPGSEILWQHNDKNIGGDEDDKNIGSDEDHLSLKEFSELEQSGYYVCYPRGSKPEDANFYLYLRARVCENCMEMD
Experiment: SPR (Biacore), human CD3e
Provide the reading as a plain figure in s⁻¹.

Consider the following illustrative entries.
| binder | measurement_units | result_value |
| --- | --- | --- |
| 1B1-H3K2-IgG1-LALA (antibody, V domains shown, Humanized; human IgG1 with LALA mutations; also called H3K2 (humanized 1B1)) VH: QVQLVQSGAEVKKPGASVKLSCKASGYTFTSYWMHWVRQRHGQGLEWIGNIYPDSGTTNYGEKFKTRVTLTVDTSTSTAYMELSSLRSEDTAVYYCTRDTSGQYYFDYWGQGTLVTVSS VL: DIVMTQSPDSLAVSAGERVTMNCKSSQSLLNSRTRKNYLAWYQHKPGQSPKLLIYWASTRESGVPDRFSGSGSGTDFTLTISSLQAEDVAVYYCVQSFSLRAFGGGTKVEIK | s⁻¹ | 0.00062 |
| 1B1-H2K1-IgG1-LALA (antibody, V domains shown, Humanized; human IgG1 with LALA mutations; also called H2K1 (humanized 1B1)) VH: QVQLVQSGAEVKKPGASVKLSCKASGYTFTSYWMHWVRQAPGQGLEWIGNIYPDSGTTNYGEKFKTRVTLTVDTSTSTAYMELSSLRSEDTAVYYCTRDTSGQYYFDYWGQGTLVTVSS VL: DIVMTQSPDSLAVSAGERATMNCKSSQSLLNSRTRKNYLAWYQHKPGQSPKLLIYWASTRESGVPDRFSGSGSGTDFTLTISSLQAEDVAVYYCVQSFSLRAFGGGTKVEIK | s⁻¹ | 0.000862 |
| 1B1-H2K2-IgG1-LALA (antibody, V domains shown, Humanized; human IgG1 with LALA mutations; also called H2K2 (humanized 1B1)) VH: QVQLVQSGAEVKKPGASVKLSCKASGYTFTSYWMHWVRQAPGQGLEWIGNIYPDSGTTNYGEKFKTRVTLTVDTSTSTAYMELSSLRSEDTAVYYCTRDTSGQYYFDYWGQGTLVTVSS VL: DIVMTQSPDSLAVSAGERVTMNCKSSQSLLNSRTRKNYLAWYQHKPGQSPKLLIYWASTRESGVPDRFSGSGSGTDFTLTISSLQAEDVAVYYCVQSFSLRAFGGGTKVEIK | s⁻¹ | 0.000881 |

Now turn to the next binder.
Input 1B1-H4K1-IgG1-LALA (antibody, V domains shown, Humanized; human IgG1 with LALA mutations; also called H4K1 (humanized 1B1)) VH: QVQLVQSGAEVVKPGASVKLSCKASGYTFTSYWMHWVRQRHGQGLEWIGNIYPDSGTTNYGEKFKTRGTLTVDTSTSTAYMELSSLRSEDTAVYYCTRDTSGQYYFDYWGQGTLVTVSS VL: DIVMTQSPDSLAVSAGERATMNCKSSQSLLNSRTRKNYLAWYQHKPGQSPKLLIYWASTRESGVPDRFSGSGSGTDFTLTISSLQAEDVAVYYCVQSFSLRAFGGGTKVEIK . Output koff: 0.000653
